assay: pharmacokinetics of nalbuphine in beagle plasma after intramuscular injection; settings: beagle, dog, plasma, im, 5 mg/kg, t1/2, α, beagles, n = 5; mean ± S.E.
Where a name gives a salt, the structure may show the parent alone.
Measurement Name: half-life

> print(dat)
                                   compound   result
1  Oc1ccc2c3c1O[C@H]1[C@@H](O)CC[C@@]4(O)[C@@H](C2)N(CC2CCC2)CC[C@]314 [Nalbuphine-HCl, nalbuphine hydrochloride]  7.8 min

---

test: pharmacokinetics of nalbuphine in beagle plasma after intramuscular injection; conditions: beagle, dog, plasma, im, 5 mg/kg
Counter-ions that a name gives are not always drawn.
Measurement Name: CL/F (mL/min/kg)

> print(dat)
                                   molecule  measurement.name  numeric.result
1  Oc1ccc2c3c1O[C@H]1[C@@H](O)CC[C@@]4(O)[C@@H](C2)N(CC2CCC2)CC[C@]314 [Nalbuphine-HCl, nalbuphine hydrochloride]              CL/F            46.7

---

assay: pharmacokinetics of nalbuphine in rat plasma after intramuscular injection; details: male, Sprague-Dawley, rat, plasma, im, 24 mg/kg
Where a name gives a salt, the structure may show the parent alone.
Measurement Name: MRT (h)

> print(dat)
                                   compound  numeric.result
1  Oc1ccc2c3c1O[C@H]1[C@@H](O)CC[C@@]4(O)[C@@H](C2)N(CC2CCC2)CC[C@]314 [Nalbuphine-HCl, nalbuphine hydrochloride]               3

---

test: pharmacokinetics of nalbuphine in beagle plasma after intramuscular injection; conditions: beagle, dog, plasma, im, 5 mg/kg, t1/2, k01, beagles, n = 5; mean ± S.E.
Where a name gives a salt, the structure may show the parent alone.
Measurement Name: half-life

> print(dat)
                                   compound   result
1  Oc1ccc2c3c1O[C@H]1[C@@H](O)CC[C@@]4(O)[C@@H](C2)N(CC2CCC2)CC[C@]314 [Nalbuphine-HCl, nalbuphine hydrochloride]  7.2 min

---

assay: pharmacokinetics of nalbuphine in rat plasma after intramuscular injection; conditions: male, Sprague-Dawley, rat, plasma, im, 24 mg/kg, t1/2, β (elimination half-life), Sprague-Dawley rats, 24 mg/kg (FIG. 7); means ± S.E.
Structures can show the parent of a compound that is named as a salt.
Measurement Name: half-life

> print(dat)
                                   compound  result
1  Oc1ccc2c3c1O[C@H]1[C@@H](O)CC[C@@]4(O)[C@@H](C2)N(CC2CCC2)CC[C@]314 [Nalbuphine-HCl, nalbuphine hydrochloride]   1.9 h

---

assay: pharmacokinetics of nalbuphine in rat plasma after intramuscular injection; details: male, Sprague-Dawley, rat, plasma, im, 24 mg/kg
Where a name gives a salt, the structure may show the parent alone.
Measurement Name: AUC (ng·h/mL)

> print(dat)
                                   compound  numeric.result
1  Oc1ccc2c3c1O[C@H]1[C@@H](O)CC[C@@]4(O)[C@@H](C2)N(CC2CCC2)CC[C@]314 [Nalbuphine-HCl, nalbuphine hydrochloride]            8040

---

test: pharmacokinetics of nalbuphine in rat plasma after intramuscular injection; conditions: male, Sprague-Dawley, rat, plasma, im, 24 mg/kg
Where a name gives a salt, the structure may show the parent alone.
Measurement Name: Tmax (min)

> print(dat)
                                   compound  measurement.name  unit.symbol  numeric.result
1  Oc1ccc2c3c1O[C@H]1[C@@H](O)CC[C@@]4(O)[C@@H](C2)N(CC2CCC2)CC[C@]314 [Nalbuphine-HCl, nalbuphine hydrochloride]              Tmax          min              27

---

test: pharmacokinetics of nalbuphine in rat plasma after intramuscular injection; settings: male, Sprague-Dawley, rat, plasma, im, 24 mg/kg
Where a name gives a salt, the structure may show the parent alone.
Measurement Name: Cmax (ng/mL)

> print(dat)
                                   compound  measurement.name  numeric.result
1  Oc1ccc2c3c1O[C@H]1[C@@H](O)CC[C@@]4(O)[C@@H](C2)N(CC2CCC2)CC[C@]314 [Nalbuphine-HCl, nalbuphine hydrochloride]              Cmax            2230
